- Target desc: T1, ICS (pro-IL-1beta-derived epitope)
- T1 construct: also called ICS peptide; 14-mer called ICS
- T1 peptide: NEAYVHDGPVRSLN
- Assay: method not stated; measured in a different context from the cleavage assay, with LEPB lacking a free N-terminus
Measure name: Kd

The binder listed as KARKEAELAAATAEQ (In the ICE cleavage experiment it was a synthetic peptide with a free N-terminus; also called synthetic LEPB; 15mer (LEPB)) [LEPB] shows Kd equal to 2000 nM
